Test: Toxicity liver stage against HepG2, at 10uM
Type: cell-based
Design: test concentration 10 uM, cell line HepG2-A16-CD81EGFP
Conditions: human, HepG2-A16-CD81EGFP cells; read-out: INHIBITION
Measured Quantity: cytotoxicity at 10 µM (%)
Numbers only; they are read as %.

Consider the following illustrative entries.
CC1(C)Oc2ccc(NC(=O)c3ccc(=O)[nH]n3)cc2O1; 10.1
CN(Cc1cccs1)C(=O)CN1CCCC(Cn2cncn2)C1 (stereo not drawn); -3.95
CCc1c(NCc2ccc(F)cc2)cnn1CC(C)C; 3.66
CN(C)CCN1CCO[C@@H]2CN(C(=O)c3cccs3)CC[C@@H]2C1; 1.34
Cc1nn(CCO)c(C)c1CNC1CCCCc2ccccc21 (stereo not drawn); -2.42
Cn1nc(C(=O)N2CC(Oc3nc4c(Cl)cccc4s3)C2)ccc1=O; 1.48
CC(NC(=O)N1CCC1)c1ccc(S(C)(=O)=O)cc1 (stereo not drawn); -4.22
CC(C)c1nc(C2CCCN2C(=O)CN(C)Cc2ccccc2)no1 (stereo not drawn); -4.86

Form field: reported cytotoxicity at 10 µM of CN(CC1CCN(CCO)CC1)CC(O)c1ccc(F)cc1F (stereo not drawn)
-59.3

What value of cytotoxicity at 10 µM has been reported for the following compound? COc1ccc(CN2CCCN(C(=O)C(C)n3ccnc3)CC2)cc1 (stereo not drawn)
-14.1

I am curious: what cytotoxicity at 10 µM value has been reported for CC(C)C(C(=O)N1CCCN(Cc2cscn2)CC1)n1cncn1 (stereo not drawn) ?
-2.1

Looking for the measured cytotoxicity at 10 µM of CC(=O)N(C)C1CCN(C(=O)c2cccc3c2ccn3C)CC1 , can you help?
1.56

Fill in: cytotoxicity at 10 µM of O=c1c2ccccc2nc2n1C(CSc1ccc(Br)cc1)CN2 (stereo not drawn) is ___
6.76

Record request: cytotoxicity at 10 µM value, item CC(C)c1nccn1C(C)C(=O)NC1CCN(S(C)(=O)=O)CC1 (stereo not drawn)
-2.86

// cytotoxicity at 10 µM lookup, key: CC(=O)NC(c1cc(F)ccc1F)C1CC1 (stereo not drawn)
-1.99

Name the recorded cytotoxicity at 10 µM for Cc1ncsc1C(=O)OCCN1CCCCCC1=O .
-4.27

Value lookup for cytotoxicity at 10 µM; key = CCOC(=O)N(C)C1CCN(Cc2csc(C)n2)CC1
-3.37
